System: Botrytis cinerea (B05.10)
Experiment: Resazurin antifungal assay of 180 alpha-factor peptide variants towards Botrytis (Example 2)
Assay type: cell-based
Settings: % inhibition of fungal growth, Botrytis conidia, peptide 15 μM, resazurin
Protocol: The antifungal activity of 180 alpha-factor peptide variants towards Botrytis was tested. Experimental design: […] Fungal conidia were harvested by scraping a Botrytis plate flooded with 1 ml water with 0.1% Tween 80 solution. […] The conidia concentration of the resulting solution was counted using a hemocytometer. […] Peptides were tested for activity against Botrytis, using the resazurin assay. […] Fluorescence was measured at 570/620 nm after 4 h of incubation with resazurin. […]
Peptide text beside a SMILES is read from it.
Measured Inhibition at 15 μM, listed per entry for reference.
readout: Inhibition at 15 μM

CSCC[C@H](NC(=O)[C@@H]1CCCN1C(=O)[C@H](CCC(N)=O)NC(=O)CNC(=O)[C@@H]1CCCN1C(=O)[C@H](CCCCN)NC(=O)[C@H](CC(C)C)NC(=O)[C@H](CCCNC(=N)N)NC(=O)[C@H](CC(C)C)NC(=O)[C@@H](NC(=O)[C@H](Cc1c[nH]cn1)NC(=O)[C@@H](N)CCCCN)[C@@H](C)O)C(=O)N[C@@H](Cc1ccc(O)cc1)C(=O)O [compound 83] (H-KHTLRLKPGQPMY-OH; N-terminus and C-terminus assumed): <90%
CSCC[C@H](NC(=O)[C@@H]1CCCN1C(=O)[C@H](CCC(N)=O)NC(=O)CNC(=O)[C@@H](NC(=O)[C@H](CCCCN)NC(=O)[C@H](CC(C)C)NC(=O)[C@H](CCCNC(=N)N)NC(=O)[C@@H](NC(=O)[C@H](Cc1c[nH]c2ccccc12)NC(=O)[C@H](CCCCN)NC(=O)[C@@H](N)Cc1c[nH]c2ccccc12)C(C)C)[C@@H](C)O)C(=O)N[C@@H](Cc1ccc(O)cc1)C(=O)O [compound 53] (H-WKWVRLKTGQPMY-OH; N-terminus and C-terminus assumed): <90%

====

Measured Inhibition at 20 μM, listed per entry for reference.
system: Botrytis cinerea (B05.10); assay: Resazurin antifungal assay of 180 alpha-factor peptide variants towards Botrytis (Example 2); assay type: cell-based; conditions: % inhibition of fungal growth, Botrytis conidia, peptide 20 μM, resazurin
Peptide text beside a SMILES is read from it.
readout: Inhibition at 20 μM

CC[C@H](C)[C@H](NC(=O)[C@H](Cc1c[nH]c2ccccc12)NC(=O)[C@H](Cc1c[nH]cn1)NC(=O)[C@@H](N)CCCCN)C(=O)N[C@@H](CCCCN)C(=O)N[C@@H](CC(C)C)C(=O)N[C@@H](CCSC)C(=O)N1CCC[C@H]1C(=O)NCC(=O)N[C@@H](CCC(N)=O)C(=O)NCC(=O)N[C@@H](CCSC)C(=O)N[C@@H](Cc1ccc(O)cc1)C(=O)O [compound 8] (H-KHWIKLMPGQGMY-OH; N-terminus and C-terminus assumed): <90%
CSCC[C@H](NC(=O)[C@@H]1CCCN1C(=O)[C@H](C)NC(=O)CNC(=O)[C@H](CCCNC(=N)N)NC(=O)[C@H](CCCCN)NC(=O)[C@H](CC(C)C)NC(=O)[C@H](CCC(N)=O)NC(=O)[C@@H](NC(=O)[C@H](Cc1c[nH]c2ccccc12)NC(=O)[C@H](Cc1c[nH]cn1)NC(=O)[C@@H]1CCCN1)C(C)C)C(=O)N[C@@H](Cc1ccc(O)cc1)C(=O)O [compound 6] (H-PHWVQLKRGAPMY-OH; N-terminus and C-terminus assumed): <90%

The values you see were collected from patent US20250382332A1.
